Values were extracted from ChEMBL document CHEMBL5442168.

Can you tell me Remaining (without cofactor) for the items I'm about to list?
- protocol: Human liver microsomal stability of compound in microsomal protein, PBS buffer pH 7.4, NADPH, glucose-6-phosphate and glucose-6-phosphate dehydrogenase media. Aliquotes were taken at 5 time points and after stopping the reaction, supernatants were analyzed using HPLC coupled with a tandem mass spectrometer. The elimination constant, half-life, and intrinsic clearance are determined as results using linear regression analysis. The assay has been performed by Enamine biological services, Bienta Ltd.The protocol is publicly available: dx.doi.org/10.17504/protocols.io.5qpvokdb9l4o/v1; also: time not given here
- Assay type: ADME, microsomes, Microsome
- condition.parameters: microsomes
One number for each entry, in %.

Would you please look over these solved cases?
smiles.str	units.symbol	Remaining (without cofactor)
CNCc1cc(-c2cc3c(N[C@@H](c4ccc5c(c4)S(=O)(=O)NCC5)C(C)C)ncnc3[nH]2)co1	%	93
CNCc1cc(-c2cc3c(N[C@H](c4ccc5c(c4)S(=O)(=O)CCC5)C(C)C)ncnc3[nH]2)co1	%	98

Reported Remaining (without cofactor) for C[C@@H](C(=O)O)[C@@H](NC(=O)c1ncnc2[nH]ccc12)c1ccc(Br)cc1 : what is it?
110
